meta.source: the supplement of paper PMC12042874

# protocol description: amyloid nucleation score (Sup35N fusion, yeast selection) (log enrichment); library NNK3; higher = more nucleation; inactive = no reads after selection;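 further: zero at mode of non-aggregating sequences after 7 days selection at 30°C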
attribute measured: amyloid nucleation score

substance | attribute measured | measured result
LLSLFFIHPTATRRTKVSRC | amyloid nucleation score | inactive
NKSLKLMYFSRDYFKDSRLN | amyloid nucleation score | inactive
IRFAAMFFALLLRRDESSYE | amyloid nucleation score | inactive
FHGYRLVYPSDYPWCLSSVH | amyloid nucleation score | inactive
CGTCLRMVKVTRSDV | amyloid nucleation score | inactive
LKAYKFMSSNQHTRTAFLGD | amyloid nucleation score | inactive
LFAIDNWVVKDSLVVWCEGR | amyloid nucleation score | inactive
AVFGCFWFAMGLSFLYAKSL | amyloid nucleation score | inactive
MISICCGIPCLFIFWFRASA | amyloid nucleation score | inactive
WCFHDGLRAYVNFCRVYATN | amyloid nucleation score | inactive
RLPPDSQMPSFYCCVDL | amyloid nucleation score | -0.144
RQVVRSTLRLSWSIFLYSYM | amyloid nucleation score | inactive
YFNGATS | amyloid nucleation score | inactive
GGQGIYMY | amyloid nucleation score | inactive
SDWIRNG | amyloid nucleation score | inactive
FGQLGVVNGFTELWQRLCSW | amyloid nucleation score | inactive
IGYGGSIPRHSTCDVSLQRW | amyloid nucleation score | inactive
DFGFWLVDVGWGPLLRYVAD | amyloid nucleation score | inactive
TVLYLNDDIATYHRMLVFRV | amyloid nucleation score | inactive
TMRNKMAY | amyloid nucleation score | inactive
CVSIGVVMCFCKSRFAITFV | amyloid nucleation score | inactive
HSRTYFQSISGWISCLMSTL | amyloid nucleation score | 1.13
IVFRLANKPRRANRC | amyloid nucleation score | inactive
FLRRGCLFRQT | amyloid nucleation score | inactive
TCKVMSSGYYVLYLDVRV | amyloid nucleation score | inactive
GLPLVACLMSEQYCL | amyloid nucleation score | inactive
MVREFTQNSKVCSTVLCDGV | amyloid nucleation score | inactive
HNLVSSSSTCCRRHPCMAG | amyloid nucleation score | inactive
YKEMVRRNLSRANKFDCGSM | amyloid nucleation score | inactive
NQEVSTGNILGLLAVTSCRD | amyloid nucleation score | inactive
LCHWFL | amyloid nucleation score | inactive
GSTTWYDLMIYLDME | amyloid nucleation score | inactive
STCKKNWNIARRI | amyloid nucleation score | inactive
IVLCMVFCWSRPWEVIIFKV | amyloid nucleation score | inactive
RCGILW | amyloid nucleation score | inactive
WMDNAI | amyloid nucleation score | inactive
FMDKLIESFTYCWCTFGYAH | amyloid nucleation score | inactive
CEGVAHSDMFLRLLLTETGL | amyloid nucleation score | -0.792
TGFILLTTTVSAINVYQVYR | amyloid nucleation score | 2.58
TRTCRIWIKSVMGRRWVIRM | amyloid nucleation score | inactive
VSLLRGVLGLVV | amyloid nucleation score | inactive
GESNVFILSAFNFNALVGFS | amyloid nucleation score | inactive
GWNSFPRPLYPRWDNSESAS | amyloid nucleation score | inactive
GTMVSEIDWVRLTYTGYSE | amyloid nucleation score | inactive
TTGMRYCLVFDIGFSFWLFM | amyloid nucleation score | inactive
TEGLKIFDDET | amyloid nucleation score | inactive
HRVIWSFSFVRSDFCFPYCA | amyloid nucleation score | inactive
VSRHKFFRHSCAN | amyloid nucleation score | inactive
YAGFTQNDNVKLYTGNPFHM | amyloid nucleation score | inactive
NSFDCVRDWLPLIF | amyloid nucleation score | inactive
RVVLTVFMFLIQSENACKLH | amyloid nucleation score | inactive
VSSSDNSVEIDRVHKMSMVE | amyloid nucleation score | inactive
PNRFNIIHVKFRFSFYATLT | amyloid nucleation score | inactive
SNIGHM | amyloid nucleation score | inactive
SLDMYPVVKKCYTYFFFQYF | amyloid nucleation score | 1.16
YLVRLVSDITRKNR | amyloid nucleation score | 2.37
CCARGGRVCRQLGLVSYTNV | amyloid nucleation score | inactive
QIIYISSLFTYDSYYKFRLH | amyloid nucleation score | inactive
GLFRFFVIIITEEVRRAVSK | amyloid nucleation score | inactive
FKTKDIVRKDEANSHWSMSG | amyloid nucleation score | inactive
VEVMSGDEMWCLWLEFPSFE | amyloid nucleation score | inactive
THKVWFKCVDAYNLAYVNSI | amyloid nucleation score | inactive
QFPSSQN | amyloid nucleation score | inactive
SPLSRWLVDNTGPLGGSLSR | amyloid nucleation score | inactive
HLLELELVFSILRRLMYWPM | amyloid nucleation score | inactive
NPECVGDAWTVVVDYTSLWE | amyloid nucleation score | inactive
DKSLFKII | amyloid nucleation score | inactive
DKRFELNRALLTVPWDQNRA | amyloid nucleation score | inactive
LEASESGIVEVPQPNYCITP | amyloid nucleation score | inactive
VLGILYSTE | amyloid nucleation score | inactive
TCNIFLGAPHGAVGRCCRAR | amyloid nucleation score | 1.82
QNNTLGVSLVTFRGLVE | amyloid nucleation score | inactive
